System: α-smooth muscle actin (aSMA) positive LL29 cells
Experiment: Inhibition of the fibrotic process: αSMA staining in TGF-β1 treated LL29 fibroblasts from IPF patients
Conditions: Homo sapiens, Fibroblast, 96 h
Mark 1 (yes) for EC50 under 900 nM, 0 (no) if at or over.

[in] EC50 under 900 nM? Item: CN1CC=C(c2cc(C(=O)Nc3ncc4ccc(-c5cncc(NC(C)(C)C)n5)cc4n3)ccn2)CC1
[out] 1 (yes)

[in] EC50 under 900 nM? Item: Cn1cc(-c2ccc3cnc(NC(=O)CCc4ccccc4)cc3n2)cn1
[out] 0 (no)

[in] EC50 under 900 nM? Item: CN(C)Cc1ccc(C(=O)Nc2cc3cc(-c4cnn(C)c4)cnc3cn2)cc1
[out] 0 (no)

[in] EC50 under 900 nM? Item: CN1CCC(C(=O)Nc2ncc3ccc(-c4cnsc4)cc3n2)CC1
[out] 0 (no)

[in] EC50 under 900 nM? Item: O=C(Nc1cc2nc(-c3cnco3)ccc2cn1)c1ccncc1
[out] 1 (yes)

[in] EC50 under 900 nM? Item: CN1CCN(c2cc(C(=O)Nc3ncc4ccc(-c5cncs5)cc4n3)ccn2)CC1
[out] 0 (no)

[in] EC50 under 900 nM? Item: Cn1cncc1-c1ccc2cnc(NC(=O)c3cccc(CN4CCCC4)c3)cc2n1
[out] 1 (yes)

[in] EC50 under 900 nM? Item: O=C(Nc1cc2cc(-c3cnco3)cnc2cn1)C1CCN(C(=O)CN2CCCC2)CC1
[out] 0 (no)

[in] EC50 under 900 nM? Item: Cn1cc(-c2ccc3cnc(NC(=O)CCc4ccccc4)nc3c2)cn1
[out] 0 (no)

[in] EC50 under 900 nM? Item: CN1CCN(c2cc(C(=O)Nc3cc4cc(-c5ccc(N)nc5)ncc4cn3)ccn2)CC1
[out] 0 (no)

[in] EC50 under 900 nM? Item: Cn1cc(-c2cc3cc(NC(=O)c4ccc5nccnc5c4)ncc3cn2)cn1
[out] 0 (no)

[in] EC50 under 900 nM? Item: Cc1ncc(-c2ccc3cnc(NC(=O)[C@H]4CC[C@H](N(C)C)CC4)cc3n2)s1
[out] 1 (yes)

[in] EC50 under 900 nM? Item: O=C(Nc1cc2cc(-c3cncc(NC4CCNCC4)n3)cnc2cn1)C1CCOCC1
[out] 0 (no)

[in] EC50 under 900 nM? Item: O=C(Nc1cc2cc(-c3cnco3)ncc2cn1)C1CCN(C(=O)CN2CCCC2)CC1
[out] 1 (yes)

[in] EC50 under 900 nM? Item: CN1CCN(Cc2cccc(C(=O)Nc3cc4nc(-c5cnn(C)c5)ccc4cn3)c2)CC1
[out] 1 (yes)

[in] EC50 under 900 nM? Item: CN1CCc2ccc(C(=O)Nc3cc4nc(-c5cnn(C)c5)ccc4cn3)cc2C1
[out] 1 (yes)

----------
Provide the recorded EC50 for the entries that follow.
Molecular target: DYRK1A kinase (Homo sapiens, UniProt Q13627)
Test: DYRK1A kinase activity (Ser/Thr 18 peptide Z-lyte FRET assay);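 note: kinase activity read as coumarin/fluorescein emission ratio after development step, with unphosphorylated and phosphorylated peptide forms setting 0% and 100% controls, values from dose-response curves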
Settings: recombinant DYRK1A, 30 μM ATP, one hour at room temperature
Entry rule: numbers only, all in nM.

[in] Any idea what EC50 came out for CN1CCC(Oc2ccc(C(=O)Nc3ncc4ccc(-c5cnn(C)c5)cc4n3)cc2)CC1 on DYRK1A kinase (Homo sapiens, UniProt Q13627)?
[out] 35

[in] Any idea what EC50 came out for Cn1cncc1-c1ccc2cnc(NC(=O)C3CCC(F)(F)CC3)nc2c1 on DYRK1A kinase (Homo sapiens, UniProt Q13627)?
[out] 391

[in] Any idea what EC50 came out for O=C(Nc1ncc2ccc(-c3cncs3)cc2n1)[C@H]1CC[C@H](CO)CC1 on DYRK1A kinase (Homo sapiens, UniProt Q13627)?
[out] 2
